target: SIK2 (Homo sapiens (Human))
Sequence (Q9H0K1 whole entry): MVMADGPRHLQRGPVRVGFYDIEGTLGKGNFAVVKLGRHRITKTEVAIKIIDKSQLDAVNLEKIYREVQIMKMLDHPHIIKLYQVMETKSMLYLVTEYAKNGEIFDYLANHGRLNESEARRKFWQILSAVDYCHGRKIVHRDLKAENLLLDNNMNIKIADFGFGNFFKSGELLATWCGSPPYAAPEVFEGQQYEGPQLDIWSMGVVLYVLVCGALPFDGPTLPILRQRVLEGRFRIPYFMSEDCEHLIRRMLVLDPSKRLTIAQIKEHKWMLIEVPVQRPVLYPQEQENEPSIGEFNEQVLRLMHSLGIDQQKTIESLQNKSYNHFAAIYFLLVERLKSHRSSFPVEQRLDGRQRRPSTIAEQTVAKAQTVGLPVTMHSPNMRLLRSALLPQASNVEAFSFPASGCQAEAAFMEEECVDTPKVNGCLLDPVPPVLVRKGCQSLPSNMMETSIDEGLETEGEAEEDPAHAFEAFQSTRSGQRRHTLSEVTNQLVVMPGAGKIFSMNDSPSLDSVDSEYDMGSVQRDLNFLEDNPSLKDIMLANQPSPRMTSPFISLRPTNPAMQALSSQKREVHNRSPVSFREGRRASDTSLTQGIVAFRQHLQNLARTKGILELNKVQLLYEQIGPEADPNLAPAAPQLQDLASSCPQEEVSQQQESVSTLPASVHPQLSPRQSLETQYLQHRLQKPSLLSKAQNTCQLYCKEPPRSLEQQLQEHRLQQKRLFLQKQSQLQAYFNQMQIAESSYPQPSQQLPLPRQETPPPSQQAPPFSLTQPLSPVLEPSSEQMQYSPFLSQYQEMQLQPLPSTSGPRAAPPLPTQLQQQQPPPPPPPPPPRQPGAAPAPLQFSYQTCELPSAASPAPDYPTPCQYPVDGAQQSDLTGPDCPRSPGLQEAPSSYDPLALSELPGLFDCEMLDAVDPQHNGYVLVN
pIC50: −log10 of the molar value. Where a name gives a salt, the structure may show the parent alone.
Classes (pIC50): 1: < 7; 2: ≥ 7 and < 8; 3: ≥ 8

Before answering, review these 5 worked examples.
{"columns": ["compound", "study target", "label class"],
 "data": [
  ["COC(=O)c1ccc(-n2cnc3cc(OC)c(OC)cc32)nc1N1CCCCC1=O", "SIK2 (Homo sapiens (Human))", 1],
  ["Cc1ccc(Nc2ccc3c(c2)ncn3-c2ccc(C(=O)C(F)(F)F)c(-n3nc(C#N)cc3C)n2)nn1", "SIK2 (Homo sapiens (Human))", 2],
  ["Cc1ccc(Nc2ccc3ncn(-c4ccc(C(N)=O)c(OC(C)C(F)F)n4)c3c2)nn1 (stereo not shown)", "SIK2 (Homo sapiens (Human))", 1],
  ["COc1cc2ncn(-c3ccc(C(N)=O)c(NC(CN)c4ccsc4)n3)c2cc1OC (stereo not shown) [Example 12, hydrochloride]", "SIK2 (Homo sapiens (Human))", 3],
  ["Cc1ccc(Nc2ccc3c(c2)ncn3-c2ccc(C=O)c(-n3nc(C#N)cc3C)n2)nn1", "SIK2 (Homo sapiens (Human))", 3]
]}

Here's the next entry for you.
Task: Could you tell me which band COC(=O)c1ccc(-n2cnc3cc(OC)c(OC)cc32)nc1N1CCCC1=O belongs to?
Result: 1

###

Parameter 'readout' = IC50; parameter 'system' = SIK3 (Homo sapiens (Human)).
Sequence (Q9Y2K2 whole entry): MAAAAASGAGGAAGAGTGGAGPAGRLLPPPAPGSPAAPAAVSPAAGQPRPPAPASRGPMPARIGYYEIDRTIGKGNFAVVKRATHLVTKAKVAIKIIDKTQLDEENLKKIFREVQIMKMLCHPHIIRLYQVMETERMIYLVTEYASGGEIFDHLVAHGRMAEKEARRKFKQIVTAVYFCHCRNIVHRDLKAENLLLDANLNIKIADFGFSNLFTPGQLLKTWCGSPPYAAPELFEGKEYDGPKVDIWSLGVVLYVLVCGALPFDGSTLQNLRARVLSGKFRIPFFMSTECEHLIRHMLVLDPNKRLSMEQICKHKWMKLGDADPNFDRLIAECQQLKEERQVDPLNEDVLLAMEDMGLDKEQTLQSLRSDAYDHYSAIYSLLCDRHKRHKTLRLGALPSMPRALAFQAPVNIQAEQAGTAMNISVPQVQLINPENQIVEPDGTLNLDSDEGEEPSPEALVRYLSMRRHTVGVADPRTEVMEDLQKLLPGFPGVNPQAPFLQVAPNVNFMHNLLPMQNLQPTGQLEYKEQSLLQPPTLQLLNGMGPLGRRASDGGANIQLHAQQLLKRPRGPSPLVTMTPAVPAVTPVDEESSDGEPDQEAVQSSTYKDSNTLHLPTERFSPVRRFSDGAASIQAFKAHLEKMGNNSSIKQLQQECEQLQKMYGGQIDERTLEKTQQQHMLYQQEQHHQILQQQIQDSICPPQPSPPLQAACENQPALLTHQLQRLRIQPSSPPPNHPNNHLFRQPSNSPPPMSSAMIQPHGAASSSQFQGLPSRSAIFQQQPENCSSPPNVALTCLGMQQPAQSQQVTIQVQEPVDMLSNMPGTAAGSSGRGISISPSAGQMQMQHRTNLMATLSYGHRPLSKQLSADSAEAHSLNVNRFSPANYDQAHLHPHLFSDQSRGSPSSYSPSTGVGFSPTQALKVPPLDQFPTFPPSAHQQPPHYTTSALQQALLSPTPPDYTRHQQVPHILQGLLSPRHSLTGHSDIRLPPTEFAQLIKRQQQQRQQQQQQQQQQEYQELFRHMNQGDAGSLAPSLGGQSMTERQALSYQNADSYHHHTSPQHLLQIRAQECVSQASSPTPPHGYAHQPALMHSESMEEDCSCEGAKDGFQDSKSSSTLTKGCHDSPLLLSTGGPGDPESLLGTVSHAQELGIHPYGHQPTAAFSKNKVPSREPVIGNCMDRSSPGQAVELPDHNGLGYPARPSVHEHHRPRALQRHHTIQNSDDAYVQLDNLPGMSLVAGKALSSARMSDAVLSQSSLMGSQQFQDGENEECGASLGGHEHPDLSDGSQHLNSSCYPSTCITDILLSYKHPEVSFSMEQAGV
All answers are understood in µM, so give the number only.

{"columns": ["item smiles", "IC50 [µM]"],
 "data": [
  ["COc1cc2ncn(-c3ccc(C(N)=O)c(NCc4ccccc4)n3)c2cc1OC", 0.156],
  ["Cc1ccc(Nc2ccc3ncn(-c4ccc(C=O)c(-n5nc(C#N)cc5C)n4)c3c2)nn1", 8.8]
]}

Task: Given the entry CNC(=O)c1ccc(-n2cnc3cc(OC)c(OC)cc32)nc1-c1cccc(C#N)c1 , report its measured IC50.
Result: 13.5

###

biological target: UniProt Q9H0K1; assay: SIK2 enzymatic activity assay, RapidFire mass spectrometry (CHK-peptide phosphorylation); type: biochemical; conditions: 0.5 nM SIK2, CHK-peptide, ATP, 30 min pre-incubation, 45 min reaction, RapidFire MS; read-out: SIK2 RF IC50
Counter-ions that a name gives are not always drawn.
measurement kind: IC50 (nM)
All answers are understood in nM, so give the number only.

{"columns": ["compound", "study target", "measurement kind", "numeric readout"],
 "data": [
  ["COc1cc2ncn(-c3ccc(C(N)=O)c(NC(CCN)c4ccccc4)n3)c2cc1OC (stereo not shown) [Example 5, hydrochloride]", "UniProt Q9H0K1", "IC50", 9.5],
  ["COc1cc2ncn(-c3ccc(C(=O)O)c(N4CCCCC4)n3)c2cc1OC", "UniProt Q9H0K1", "IC50", 241],
  ["COc1cc2ncn(-c3ccc(C(N)=O)c(NCc4ccc(Cl)cc4)n3)c2cc1OC", "UniProt Q9H0K1", "IC50", 16.2],
  ["CC(=O)c1ccc(-n2cnc3cc(Nc4ccc(C5CCCN5)nn4)ccc32)nc1-n1nc(C#N)cc1C (stereo not shown)", "UniProt Q9H0K1", "IC50", 43.7],
  ["Cc1ccc(Nc2ccc3c(c2)ncn3-c2ccc(C=O)c(N3C[C@H](C#N)C[C@@H]3C)n2)nn1", "UniProt Q9H0K1", "IC50", 95.1]
]}

Task: Given the entry COc1cc(-n2cnc3cc(Nc4ccc(C)nn4)ccc32)nc(OC)c1C(C)=O , report its measured IC50.
Result: 86.7

Task: Given the entry COC(=O)c1ccc(-n2cnc3cc(OC)c(OC)cc32)nc1-c1cccc(Cl)c1 , report its measured IC50.
Result: 995

Task: Given the entry COc1cc2ncn(-c3ccc(C(N)=O)c(NC(CCN)c4ccsc4)n3)c2cc1OC (stereo not shown) [Example 4, hydrochloride] , report its measured IC50.
Result: 3.3

Task: Given the entry Cc1cc(C#N)nn1-c1nc(-n2cnc3cc(OCCN4CCOCC4)ccc32)ccc1C(N)=O , report its measured IC50.
Result: 7410

Task: Given the entry COc1cc2ncn(-c3ccc(C(N)=O)c(Oc4ccccc4Cl)n3)c2cc1OC , report its measured IC50.
Result: 14.2
